# measured-on: G-protein coupled receptor 35 (Homo sapiens, UniProt Q9HC97)
# Sequence (Q9HC97 whole entry): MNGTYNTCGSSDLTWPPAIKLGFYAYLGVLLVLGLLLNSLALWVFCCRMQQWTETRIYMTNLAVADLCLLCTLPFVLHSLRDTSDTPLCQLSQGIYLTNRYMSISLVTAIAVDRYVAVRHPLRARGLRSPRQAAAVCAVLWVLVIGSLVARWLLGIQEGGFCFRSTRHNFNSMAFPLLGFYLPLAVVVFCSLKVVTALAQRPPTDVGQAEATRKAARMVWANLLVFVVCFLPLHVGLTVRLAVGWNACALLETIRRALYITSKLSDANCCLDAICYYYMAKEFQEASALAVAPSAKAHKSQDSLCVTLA
# assay-info: Agonist activity at GPR35 in human HT-29 cells assessed as desensitization of 1 uM zaprinast-induced DMR after 1 hr by dynamic mass redistribution assay
measurement-type: pIC50
Please report pIC50 as the negative decimal logarithm of the molar concentration, giving only the number.

CC1=C(C#N)C(=C(C#N)C#N)OC12CCCCC2 = 4.79
CC1=C(C#N)C(=C(C#N)C#N)OC1(C)c1ccc(Cl)c(Cl)c1 (configuration not stated) = 7.22

pIC50 lookup needed for CC1=C(C#N)C(=C(C#N)C#N)OC1(C)c1ccc(Cl)c(Cl)c1Cl (configuration not stated) , thanks.
4.99

pIC50 lookup needed for CCCCc1ccc(C2(C)OC(=C(C#N)C#N)C(C#N)=C2C)cc1 (configuration not stated) , thanks.
5.19
